target: human MC4-R (Homo sapiens, UniProt P32245); construct: expressed in transfected cells; host or cells: HEK293 T-REx (tetracycline-regulated, Invitrogen); cell line from Palatin Technologies with license from the University of Michigan; experiment: Competitive inhibition binding assay with [I125]-NDP-α-MSH or Eu-NDP-α-MSH, membranes of HEK-293 cells expressing recombinant hMC4-R; details: human MC4-R; averages of all comparable assays; read-out: Ki
Sequence (P32245 whole entry): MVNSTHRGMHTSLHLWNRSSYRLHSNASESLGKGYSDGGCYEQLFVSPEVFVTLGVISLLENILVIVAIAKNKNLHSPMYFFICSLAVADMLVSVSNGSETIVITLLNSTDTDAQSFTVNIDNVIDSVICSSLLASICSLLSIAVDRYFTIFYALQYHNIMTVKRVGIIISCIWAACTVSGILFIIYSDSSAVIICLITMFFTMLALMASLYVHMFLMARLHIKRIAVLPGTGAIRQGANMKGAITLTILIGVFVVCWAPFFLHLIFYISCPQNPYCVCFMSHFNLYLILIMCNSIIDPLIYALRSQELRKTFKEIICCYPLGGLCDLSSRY
Bridge positions count the residues as written; N and C are the ends. Square brackets hold non-standard residues; d marks the D form. Peptide text beside a SMILES is read from it. Orn = NCCC[C@H](N)C(=O)O
Metric: Ki (nM)
Just the number in nM, nothing appended.

Worked examples follow.
{"Molecule": "CC(=O)N[C@@H](CCCNC(=N)N)C(=O)N[C@H]1CCCNC(=O)CC[C@@H](C(N)=O)NC(=O)[C@H](Cc2c[nH]c3ccccc23)NC(=O)[C@H](CCCNC(=N)N)NC(=O)[C@@H](Cc2ccccc2)NC(=O)[C@@H]2CCCN2C1=O [No. 47] (Ac-R[Orn]P[dF]RWE-NH2; lactam 2-7)", "Result units": "nM", "Ki": 5}
{"Molecule": "CC(=O)N[C@@H](CCCNC(=N)N)C(=O)N[C@H]1CCCNC(=O)CC[C@@H](C(=O)O)NC(=O)[C@H](Cc2c[nH]c3ccccc23)NC(=O)[C@H](CCCNC(=N)N)NC(=O)[C@@H](Cc2ccccc2)NC(=O)[C@H](Cc2c[nH]cn2)NC1=O [No. 37] (Ac-R[Orn]H[dF]RWE-OH; lactam 2-7)", "Result units": "nM", "Ki": 12}
{"Molecule": "CCCC[C@H](NC(C)=O)C(=O)N[C@H]1CCC(=O)NCCC[C@@H](C(N)=O)NC(=O)[C@H](Cc2c[nH]c3ccccc23)NC(=O)[C@H](CCCNC(=N)N)NC(=O)[C@@H](Cc2ccccc2)NC(=O)[C@H](Cc2c[nH]cn2)NC1=O", "Result units": "nM", "Ki": 0.1}

Continue with the next molecule.
Provide value of Ki for this record tested with human MC4-R (Homo sapiens, UniProt P32245): CC(=O)N[C@@H](CCCNC(=N)N)C(=O)N[C@H]1CCCNC(=O)CC[C@@H](C(N)=O)NC(=O)[C@H](Cc2c[nH]c3ccccc23)NC(=O)[C@H](CCCNC(=N)N)NC(=O)[C@@H](Cc2ccccc2)NC(=O)[C@H](Cc2c[nH]cn2)NC1=O [No. 38] (Ac-R[Orn]H[dF]RWE-NH2; lactam 2-7)
1

---

biological target: human MC4-R (Homo sapiens, UniProt P32245); construct: expressed in transfected cells; host or cells: HEK293 T-REx (tetracycline-regulated, Invitrogen); cell line from Palatin Technologies with license from the University of Michigan; experiment: cAMP functional assay in HEK-293 T-REx cells expressing human MC4-R, induced with doxycycline 0.1 ng/mL (low density); assay type: cell-based; details: human MC4-R cAMP assay, doxycycline 0.1 ng/mL; averages of all comparable assays; read-out: Ec50
pEC50: −log10 of the molar value. Bridge positions count the residues as written; N and C are the ends. Square brackets hold non-standard residues; d marks the D form. Peptide text beside a SMILES is read from it. Orn = NCCC[C@H](N)C(=O)O
Binary call on pEC50: label 1 from 8 upward, label 0 beneath that.

{"Compound": "CC(=O)N[C@@H](CCCNC(=N)N)C(=O)N[C@H]1CC(=O)NCCCC[C@@H](C(N)=O)NC(=O)[C@H](Cc2c[nH]c3ccccc23)NC(=O)[C@H](CCCNC(=N)N)NC(=O)[C@@H](Cc2ccccc2)NC(=O)[C@H](CC(N)=O)NC1=O [reference compound] (Ac-RDN[dF]RWK-NH2; lactam 2-7)", "Classification": "label 0"}
{"Compound": "CC(=O)N[C@@H](CCCNC(=N)N)C(=O)N[C@H]1CCCNC(=O)CC[C@@H](C(=O)O)NC(=O)[C@H](Cc2c[nH]c3ccccc23)NC(=O)[C@H](CCCNC(=N)N)NC(=O)[C@@H](Cc2ccccc2)NC(=O)[C@H](Cc2c[nH]cn2)NC1=O [No. 37] (Ac-R[Orn]H[dF]RWE-OH; lactam 2-7)", "Classification": "label 1"}

Moving on to another compound below.
API: above_or_equal(metric=pEC50, cutoff=8) for item CC(=O)N[C@@H](CCCCN)C(=O)N[C@H]1CCCNC(=O)CC[C@@H](C(N)=O)NC(=O)[C@H](Cc2c[nH]c3ccccc23)NC(=O)[C@H](CCCNC(=N)N)NC(=O)[C@@H](Cc2ccccc2)NC(=O)[C@H](Cc2c[nH]cn2)NC1=O [No. 40] (Ac-K[Orn]H[dF]RWE-NH2; lactam 2-7)
label 1
